target_or_test_system: T1, SHC1 149-317 PID (domain begin residue: 149, domain end residue: 317), P29353
T1 chain: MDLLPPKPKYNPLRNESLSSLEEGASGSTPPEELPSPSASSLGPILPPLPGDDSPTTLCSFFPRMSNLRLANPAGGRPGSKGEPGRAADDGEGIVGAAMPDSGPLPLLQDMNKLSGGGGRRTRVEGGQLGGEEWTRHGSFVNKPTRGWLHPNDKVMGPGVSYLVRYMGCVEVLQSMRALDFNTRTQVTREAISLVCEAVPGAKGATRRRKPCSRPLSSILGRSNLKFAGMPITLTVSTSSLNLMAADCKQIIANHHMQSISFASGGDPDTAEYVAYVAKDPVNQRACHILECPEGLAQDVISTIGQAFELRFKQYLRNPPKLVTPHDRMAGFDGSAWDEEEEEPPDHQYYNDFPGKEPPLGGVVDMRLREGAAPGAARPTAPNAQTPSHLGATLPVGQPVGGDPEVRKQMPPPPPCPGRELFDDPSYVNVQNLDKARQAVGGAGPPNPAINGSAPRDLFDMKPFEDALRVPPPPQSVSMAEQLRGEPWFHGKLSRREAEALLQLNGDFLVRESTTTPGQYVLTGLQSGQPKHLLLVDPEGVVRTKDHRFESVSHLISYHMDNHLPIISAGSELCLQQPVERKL
assay: phage ELISA signal ratio (GST-PRM binding over GST background); higher = stronger binding of peptide-phage to the PRM
Please respond with reported phage ELISA signal ratio for every item in the list.
Enter the number alone.

INPUT: Query: phage ELISA signal ratio; subject: LEEHWQWWVDDMMPME
OUTPUT: 4.84

INPUT: Moving on to the next binder: EWGIMDSEWWGRYYEM
OUTPUT: 6.81

INPUT: Next entry: GPMIGWNQEYIFFSEH
OUTPUT: 16.2
